Source: paper PMC9482650

SUBJECT OF TEST: T1, SNTG2, Q9NY99
T1 sequence (Q9NY99 68-166, limits assumed, looked up): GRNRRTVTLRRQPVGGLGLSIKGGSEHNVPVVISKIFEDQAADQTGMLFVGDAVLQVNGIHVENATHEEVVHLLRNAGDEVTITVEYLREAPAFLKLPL
TEST METHOD NOTES: holdup assay
Parameters: key: below the threshold = too weak to quantify, mostly under pKd 3.1 to 4
CONDITION LABEL: plain residues with an end cap or a label only (N-terminal biotin on a linker: ttds)
PARAMETER MEASURED: pKd

Below, 5 binders whose answers are already recorded.
BINDER: PFRSRSPSEV [GPR6, P46095]
PARAMETER MEASURED: pKd
EXPERIMENTAL VALUE: below the threshold

BINDER: KQVVPFSSSV [GDA, Q9Y2T3]
PARAMETER MEASURED: pKd
EXPERIMENTAL VALUE: below the threshold

BINDER: SHSSKGETAV [FZD7, O75084]
PARAMETER MEASURED: pKd
EXPERIMENTAL VALUE: below the threshold

BINDER: PPRQRSETQV [HPV82-E6, Q9IR59]
PARAMETER MEASURED: pKd
EXPERIMENTAL VALUE: 4

BINDER: DLDEEEDTHL [PODXL, O00592]
PARAMETER MEASURED: pKd
EXPERIMENTAL VALUE: below the threshold

Enquiry: Any idea what pKd was measured for KLVIKTETTV [RASSF6, Q6ZTQ3] ?
Return: 3.99
